# assay system: HSA (Homo sapiens, UniProt P02768)
# Construct: purchased Sigma Aldrich
# Sequence (P02768 25-609): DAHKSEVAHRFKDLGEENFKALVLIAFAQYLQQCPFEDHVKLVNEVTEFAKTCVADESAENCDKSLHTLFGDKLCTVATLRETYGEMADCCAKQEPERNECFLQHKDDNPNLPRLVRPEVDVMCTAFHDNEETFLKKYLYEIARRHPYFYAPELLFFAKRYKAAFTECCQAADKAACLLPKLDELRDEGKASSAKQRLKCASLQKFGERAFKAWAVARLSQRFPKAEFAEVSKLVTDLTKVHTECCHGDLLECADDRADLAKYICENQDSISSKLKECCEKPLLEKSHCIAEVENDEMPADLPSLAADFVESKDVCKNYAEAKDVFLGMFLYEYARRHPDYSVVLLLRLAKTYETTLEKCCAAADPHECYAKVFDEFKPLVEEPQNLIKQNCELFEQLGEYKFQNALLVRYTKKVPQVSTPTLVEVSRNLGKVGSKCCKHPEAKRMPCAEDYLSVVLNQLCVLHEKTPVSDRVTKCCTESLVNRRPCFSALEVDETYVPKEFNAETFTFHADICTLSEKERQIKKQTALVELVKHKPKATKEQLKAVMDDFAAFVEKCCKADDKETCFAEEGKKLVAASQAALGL
# experimental details: Bio-layer interferometry (BLI) assay of non-covalent biotinylated RAEs with HSA
# Type: binding
# run parameters: human serum albumin (HSA), BLI, 1 μM non-covalent biotinylated RAE as bait, HSA serial dilution in kinetic buffer, association 480 s, dissociation 960 s, steady-state, 1:1 model, read-out: Kd
Where a SMILES comes first, the peptide text is derived from it. [ ]: non-standard residue; d: D form. The star is where a group is joined. Biotin = O=C1N[C@H]2[C@H](CS[C@H]2CCCCC(=O)*)N1; Myristoyl = CCCCCCCCCCCCCC(=O)*; Aad = N[C@@H](CCCC(=O)O)C(=O)O; AEEA = NCCOCCOCC(=O)O
So I've got a bunch of compounds here, and I need their Kd at 480 s values.
Answers are plain numbers, in nM.

CCCCCCCCCCCCCC(=O)N[C@H](CCC(=O)O)C(=O)N[C@@H](CC(=O)O)C(=O)N[C@@H](CCCCNC(C)=O)C(=O)N[C@H](CO)C(=O)N[C@@H](CCCC(=O)O)C(=O)NCCOCCOCC(=O)NCCOCCOCC(=O)N[C@@H](CCCCNC(=O)CCCC[C@@H]1SC[C@@H]2NC(=O)N[C@@H]21)C(N)=O [NCB-LYL1] (Myristoyl-[dE]DK(Ac)[dS][Aad][AEEA][AEEA]K(Biotin)-NH2)    1400
CCCCCCCCCCCCCC(=O)N[C@H](CCC(=O)O)C(=O)N[C@@H](CCCCNC(C)=O)C(=O)N[C@@H](CCCC(=O)O)C(=O)N[C@H](CCC(=O)O)C(=O)NCCOCCOCC(=O)NCCOCCOCC(=O)N[C@@H](CCCCNC(=O)CCCC[C@@H]1SC[C@@H]2NC(=O)N[C@@H]21)C(N)=O [NCB-LYL3] (Myristoyl-[dE]K(Ac)[Aad][dE][AEEA][AEEA]K(Biotin)-NH2)    2400
CCCCCCCCCCCCCC(=O)N[C@H](C)C(=O)N[C@@H](CCCC(=O)O)C(=O)N[C@@H](CCCCNC(C)=O)C(=O)N[C@H](CCC(=O)O)C(=O)N[C@H](CO)C(=O)NCCOCCOCC(=O)NCCOCCOCC(=O)N[C@@H](CCCCNC(=O)CCCC[C@@H]1SC[C@@H]2NC(=O)N[C@@H]21)C(N)=O [NCB-LYL4] (Myristoyl-[dA][Aad]K(Ac)[dE][dS][AEEA][AEEA]K(Biotin)-NH2)    2800

In the following, a different compound is considered.
Ask: Please give the measured Kd at 480 s for this compound: CCCCCCCCCCCCCC(=O)N[C@H](CCC(=O)O)C(=O)N[C@@H](CCCC(=O)O)C(=O)N[C@@H](CCCCNC(C)=O)C(=O)N[C@@H](CC(=O)O)C(=O)N[C@@H](Cc1ccc(O)cc1)C(=O)NCCOCCOCC(=O)NCCOCCOCC(=O)N[C@@H](CCCCNC(=O)CCCC[C@@H]1SC[C@@H]2NC(=O)N[C@@H]21)C(N)=O [NCB-LYL2] (Myristoyl-[dE][Aad]K(Ac)DY[AEEA][AEEA]K(Biotin)-NH2)
Result: 1000

Recorded values, source paper PMC9782315.
